Entries and their melting point

Reported melting point, molecule COc1ccc(C23OOC(c4ccccc4)(O2)C(C)c2ccccc23)cc1 (centres unmarked) : ____
135 to 136 °C

Reported melting point, molecule c1ccc(C23Cc4ccccc4C(c4ccccc4)(OO2)O3)cc1 (centres unmarked) : ____
119 °C

Reported melting point, molecule CC(C)C1c2ccccc2C2(c3ccccc3)OOC1(c1ccccc1)O2 (centres unmarked) : ____
130 to 132 °C

---

Entries and their melting point

See these solved cases before continuing.
c1ccc(C2c3ccccc3C3OC2(c2ccccc2)ON3c2ccccc2)cc1 (centres unmarked); 155 to 156 °C
CC12OOC(c3ccccc3)(O1)c1ccccc1C2c1ccccc1 (centres unmarked); 178 to 180 °C
Cc1ccc(C23OOC(c4ccccc4)(O2)C(C)c2ccccc23)cc1 (centres unmarked); 139 to 141 °C
c1ccc(C2c3ccccc3C3(c4ccccc4)OOC2(c2ccccc2)O3)cc1 (centres unmarked); 171 to 173 °C

Now, please, on to the next molecule.
Reported melting point, molecule CC1c2ccccc2C2(c3ccccc3)OOC1O2 (centres unmarked) : ____
127 to 128 °C
